- tested.target: human Kv1.5 channel (Homo sapiens, UniProt P22460)
- Sequence (P22460 whole entry): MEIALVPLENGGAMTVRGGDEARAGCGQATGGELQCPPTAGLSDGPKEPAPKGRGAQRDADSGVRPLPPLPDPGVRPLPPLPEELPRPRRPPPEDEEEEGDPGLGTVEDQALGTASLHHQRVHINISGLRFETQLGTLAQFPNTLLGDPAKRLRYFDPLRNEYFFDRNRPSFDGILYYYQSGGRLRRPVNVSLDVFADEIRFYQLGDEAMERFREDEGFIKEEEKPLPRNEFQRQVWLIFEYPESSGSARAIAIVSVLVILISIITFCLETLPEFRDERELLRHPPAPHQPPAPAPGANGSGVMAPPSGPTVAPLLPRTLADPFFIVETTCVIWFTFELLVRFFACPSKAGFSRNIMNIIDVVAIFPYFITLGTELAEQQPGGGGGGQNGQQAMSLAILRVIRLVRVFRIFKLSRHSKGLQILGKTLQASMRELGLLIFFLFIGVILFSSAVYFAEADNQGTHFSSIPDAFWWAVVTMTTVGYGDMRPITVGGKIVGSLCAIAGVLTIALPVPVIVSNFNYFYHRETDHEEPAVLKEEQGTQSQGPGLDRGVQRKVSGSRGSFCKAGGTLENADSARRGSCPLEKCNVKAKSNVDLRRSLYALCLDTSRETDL
- protocol.notes: Test A: Rb+ efflux assay
- condition.summary: CHO cells stably transfected with cDNA for human Kv1.5
Each record is given true if its reported IC50 is strictly below 1000 nM. Records at or above 1000 nM are given false.

compound | classification
CC(c1ccccc1)N1C(=O)c2ccccc2C1C(=O)NCc1ccccc1 (single isomer, unassigned) | false
CC(CN1C(=O)c2ccccc2C1C(=O)NCc1ccc(C#N)cc1)c1ccc(Cl)cc1 (centres unmarked) | false
COc1ccc2c(c1)C(=O)N(CC(C)c1ccc(Cl)cc1)C2C(=O)NCc1ccccc1 (centres unmarked) | true
CC(C)(C)NC(=O)C1c2cc(Cl)ccc2C(=O)N1Cc1ccccc1C(F)(F)F (centres unmarked) | false
CN(Cc1ccccc1)C(=O)C1c2ccccc2C(=O)N1CCc1ccc(Cl)cc1 (centres unmarked) | true
CC(CN1C(=O)c2ccccc2C1C(=O)NCc1ccccc1C(F)(F)F)c1ccc(Cl)cc1 (centres unmarked) | true
O=C(NCCCC(F)F)C1c2cc(Cl)ccc2C(=O)N1Cc1ccccc1C1CCCC1 (centres unmarked) | false
Cc1c(O)ccc2c1C(=O)N(Cc1ccccc1-c1ccccc1)C2C(=O)NC(C)(C)C (single isomer, unassigned) | false
CCCCNC(=O)C1c2ccccc2C(=O)N1CC(C)c1ccc(Cl)cc1 (centres unmarked) | true
COc1cc2c(cc1OC)C(C(=O)NCc1ccccc1)N(CC(C)c1ccc(Cl)cc1)C2=O (centres unmarked) | true
O=C(NCc1ccc(C(F)(F)F)nc1)C1c2ccccc2C(=O)N1Cc1ccccc1-c1ccccc1 (centres unmarked) | true

Sourced from patent US20080015237A1
